# tgt: HLA-B*44:02
# method-notes: IEDB peptide-MHC binding, purified MHC/competitive/radioactivity; filed as Kd, often an IC50 or EC50 that approximates it; bounds were set here for any values at or beyond the usual limits of such assays
# assay-setup: source organism: Dengue virus 1 Singapore/S275/1990
pKd: −log10 of the molar value.
endpoint: pKd

1) AQIMEVTARW	6.81

* * *

# tgt: HLA-A*02:01
# method-notes: IEDB peptide-MHC binding, purified MHC/competitive/radioactivity; filed as Kd, often an IC50 or EC50 that approximates it; bounds were set here for any values at or beyond the usual limits of such assays
# assay-setup: source organism: Vaccinia virus WR
endpoint: Kd

1. MTIREFPRK	≥ 78.1 µM

* * *

# tgt: HLA-A*69:01
# method-notes: IEDB peptide-MHC binding, purified MHC/direct/fluorescence; filed as Kd, often an IC50 or EC50 that approximates it; bounds were set here for any values at or beyond the usual limits of such assays
# assay-setup: source organism: Mycobacterium tuberculosis variant bovis
endpoint: Kd (µM)

1) ELRGLLKDV	13

* * *

# tgt: HLA-A*02:03
# method-notes: IEDB peptide-MHC binding, purified MHC/competitive/fluorescence; filed as Kd, often an IC50 or EC50 that approximates it; bounds were set here for any values at or beyond the usual limits of such assays
# assay-setup: source organism: Giardia lamblia ATCC 50803
Listing: Kd of selected sequences
endpoint: Kd

1) NAMGADYYA	≥ 20 µM
2) TEDDWITYI	≥ 20 µM

* * *

# tgt: HLA-B*15:01
# method-notes: IEDB peptide-MHC binding, purified MHC/direct/fluorescence; filed as Kd, often an IC50 or EC50 that approximates it; bounds were set here for any values at or beyond the usual limits of such assays
# assay-setup: source organism: Human immunodeficiency virus type 1 (STRAIN UGANDAN / ISOLATE U455)
pKd: −log10 of the molar value.
endpoint: pKd

1) HPDIVIYQY	5.82

* * *

# tgt: HLA-A*26:01
# method-notes: IEDB peptide-MHC binding, purified MHC/direct/fluorescence; filed as Kd, often an IC50 or EC50 that approximates it; bounds were set here for any values at or beyond the usual limits of such assays
# assay-setup: source organism: Brucella suis 1330
pKd: −log10 of the molar value.
endpoint: pKd

1) MRIGSMATL	≤ 4.70
2) YWMGGTTYF	≤ 4.70

* * *

# tgt: HLA-A*24:02
# method-notes: IEDB peptide-MHC binding, purified MHC/competitive/fluorescence; filed as Kd, often an IC50 or EC50 that approximates it; bounds were set here for any values at or beyond the usual limits of such assays
# assay-setup: source organism: Cryptosporidium parvum Iowa II
pKd: −log10 of the molar value.
endpoint: pKd

1. NYKWWWFSF	8.64

* * *

# tgt: HLA-A*11:01
# method-notes: IEDB peptide-MHC binding, purified MHC/competitive/fluorescence; filed as Kd, often an IC50 or EC50 that approximates it; bounds were set here for any values at or beyond the usual limits of such assays
# assay-setup: source organism: Human immunodeficiency virus 1
pKd: −log10 of the molar value.
endpoint: pKd

1) RSLFNTIAVLY	≤ 4.70

* * *

# tgt: HLA-B*57:01
# method-notes: IEDB peptide-MHC binding, purified MHC/direct/fluorescence; filed as Kd, often an IC50 or EC50 that approximates it; bounds were set here for any values at or beyond the usual limits of such assays
# assay-setup: source organism: Giardia lamblia ATCC 50803
endpoint: Kd

1) RPALVVDTP	≥ 20 µM

* * *

# tgt: HLA-B*51:01
# method-notes: IEDB peptide-MHC binding, purified MHC/competitive/radioactivity; filed as Kd, often an IC50 or EC50 that approximates it; bounds were set here for any values at or beyond the usual limits of such assays
# assay-setup: source organism: SARS coronavirus Tor2
pKd: −log10 of the molar value.
Listing: pKd of selected sequences
endpoint: pKd

1. FPLCANGQVF	7.97
2. LPDDFMGCVL	7.01
3. SPNLAWPLIV	5.55
4. APATVCGPKL	5.15
5. LPVNVAFEL	8.94
6. MPILTLTRAL	8.08

* * *

# tgt: HLA-A*33:01
# method-notes: IEDB peptide-MHC binding, purified MHC/competitive/radioactivity; filed as Kd, often an IC50 or EC50 that approximates it; bounds were set here for any values at or beyond the usual limits of such assays
# assay-setup: source organism: Mammarenavirus guanaritoense
endpoint: Kd

1. TKTAVNMLTH	≥ 35.7 µM

* * *

# tgt: HLA-A*69:01
# method-notes: IEDB peptide-MHC binding, purified MHC/direct/fluorescence; filed as Kd, often an IC50 or EC50 that approximates it; bounds were set here for any values at or beyond the usual limits of such assays
# assay-setup: source organism: Camelpox virus M-96
endpoint: Kd (µM)

1. WYYDFHFFV	0.27
2. YLYETYHLI	0.0038

* * *

# tgt: HLA-B*40:02
# method-notes: IEDB peptide-MHC binding, purified MHC/competitive/radioactivity; filed as Kd, often an IC50 or EC50 that approximates it; bounds were set here for any values at or beyond the usual limits of such assays
# assay-setup: source organism: Lymphocytic choriomeningitis virus (strain Armstrong)
endpoint: Kd (nM)

1. KDLQRLRSL	165

* * *

# tgt: HLA-B*08:03
# method-notes: IEDB peptide-MHC binding, purified MHC/direct/fluorescence; filed as Kd, often an IC50 or EC50 that approximates it; bounds were set here for any values at or beyond the usual limits of such assays
# assay-setup: source organism: Variola virus
pKd: −log10 of the molar value.
endpoint: pKd

1) GLYRLNFRR	≤ 4.70

* * *

# tgt: HLA-B*44:03
# method-notes: IEDB peptide-MHC binding, purified MHC/competitive/radioactivity; filed as Kd, often an IC50 or EC50 that approximates it; bounds were set here for any values at or beyond the usual limits of such assays
# assay-setup: source organism: Mammarenavirus guanaritoense
endpoint: Kd (µM)

1) DESALNISGY	3.37
2) AEAYCTGML	0.343
3) EDFLLMYEM	2.55

* * *

# tgt: HLA-C*12:03
# method-notes: IEDB peptide-MHC binding, purified MHC/direct/fluorescence; filed as Kd, often an IC50 or EC50 that approximates it; bounds were set here for any values at or beyond the usual limits of such assays
# assay-setup: source organism: Canarypox virus
endpoint: Kd (nM)

1) YIIPCILIL	327

* * *

# tgt: HLA-A*02:19
# method-notes: IEDB peptide-MHC binding, purified MHC/direct/fluorescence; filed as Kd, often an IC50 or EC50 that approximates it; bounds were set here for any values at or beyond the usual limits of such assays
# assay-setup: source organism: Toxoplasma gondii RH
endpoint: Kd

1) THADAHTQL	≥ 20 µM

* * *

# tgt: HLA-B*15:01
# method-notes: IEDB peptide-MHC binding, purified MHC/competitive/radioactivity; filed as Kd, often an IC50 or EC50 that approximates it; bounds were set here for any values at or beyond the usual limits of such assays
# assay-setup: source organism: Dengue virus 2 Jamaica/1409/1983
pKd: −log10 of the molar value.
Listing: pKd of selected sequences
endpoint: pKd

1) AQKRAAAGIM	7.16
2) KVIQLSRKTF	7.31
3) IGKALHQVF	6.43

* * *

# tgt: HLA-B*15:17
# method-notes: IEDB peptide-MHC binding, purified MHC/direct/fluorescence; filed as Kd, often an IC50 or EC50 that approximates it; bounds were set here for any values at or beyond the usual limits of such assays
# assay-setup: source organism: Campylobacter jejuni RM1221
endpoint: Kd (nM)

1. KSNEKNMDF	7.3

* * *

# tgt: HLA-B*07:02
# method-notes: IEDB peptide-MHC binding, purified MHC/direct/fluorescence; filed as Kd, often an IC50 or EC50 that approximates it; bounds were set here for any values at or beyond the usual limits of such assays
# assay-setup: source organism: Influenza A virus (A/swine/Korea/S190/2004(H9N2))
pKd: −log10 of the molar value.
endpoint: pKd

1) ATTHSWIPK	≤ 4.70

* * *

# tgt: HLA-B*53:01
# method-notes: IEDB peptide-MHC binding, purified MHC/competitive/radioactivity; filed as Kd, often an IC50 or EC50 that approximates it; bounds were set here for any values at or beyond the usual limits of such assays
# assay-setup: source organism: Dengue virus 4 Thailand/0348/1991
pKd: −log10 of the molar value.
endpoint: pKd

1) MIDKTPVHSW	6.14

* * *

# tgt: HLA-B*08:02
# method-notes: IEDB peptide-MHC binding, purified MHC/direct/fluorescence; filed as Kd, often an IC50 or EC50 that approximates it; bounds were set here for any values at or beyond the usual limits of such assays
# assay-setup: source organism: Vibrio parahaemolyticus AQ3810
pKd: −log10 of the molar value.
endpoint: pKd

1) RSTLANGWY	≤ 4.70

* * *

# tgt: HLA-B*15:17
# method-notes: IEDB peptide-MHC binding, purified MHC/direct/fluorescence; filed as Kd, often an IC50 or EC50 that approximates it; bounds were set here for any values at or beyond the usual limits of such assays
# assay-setup: source organism: Camelpox virus M-96
pKd: −log10 of the molar value.
endpoint: pKd

1) FTENGPWMY	8.28
